- System: U-2932
- Assay Overview: growth inhibition by drug alone (1 - RLU/untreated control) (fraction); higher = stronger inhibition
- Assay Setup: 1000 nM; time (day): 3; 177Lu-lilotomab satetraxetan 0 ug/ml
Quantity Kind: growth inhibition by drug alone

CN1C(=O)C(Cc2c[nH]c3ccccc23)NC1=S (stereo not given) | -0.0606
CCNC(=O)c1noc(-c2cc(C(C)C)c(O)cc2O)c1-c1ccc(CN2CCOCC2)cc1 | 0.942
Cc1[nH]c2ccccc2c1CCNCc1ccc(/C=C/C(=O)NO)cc1 | 0.98
COc1cc2ncnc(-n3nc(-c4ccccn4)nc3N)c2cc1OC | 0.057
CN(C)Cc1c(C(=O)NCCOc2ccc(C(=O)NO)cc2)oc2ccccc12 | 0.972
